The reported measurements were obtained from ChEMBL document CHEMBL5584288.

test_system: Amyloid-beta precursor protein (Homo sapiens)
test: Inhibition of amyloid beta (1 to 42) (unknown origin) aggregation assessed as reduction in amyloid beta fibril formation at 200 uM incubated for 12 hrs by ThT-based fluorescence analysis
Active and inactive are the calls of the source. The calls are words filed in the database; no cut-off is given here. Square brackets hold non-standard residues; d marks the D form. Peptide text beside a SMILES is read from it. Sar = CNCC(=O)O
property_name: inhibition

The compound CC[C@H](C)[C@H](NC(C)=O)C(=O)N[C@H](C(=O)N(C)CC(=O)N[C@@H](CC(C)C)C(=O)N[C@@H](CCSC)C(=O)N[C@H](C(=O)NCC(=O)N(C)CC(=O)N[C@H](C(N)=O)C(C)C)C(C)C)[C@@H](C)CC showed inhibition equal to Active

The compound CC(=O)N[C@@H](CCCCN)C(=O)N(C)CC(=O)N[C@H](C(=O)N[C@@H](Cc1ccccc1)C(=O)N[C@@H](Cc1ccccc1)C(=O)N(C)CC(=O)N[C@@H](CCC(=O)O)C(N)=O)C(C)C (Ac-K[Sar]VFF[Sar]E-NH2) showed inhibition equal to Active

The compound CC(=O)N[C@@H](Cc1ccccc1)C(=O)N[C@@H](CCCCN)C(=O)N[C@@H](CCC(=O)O)C(=O)N(C)CC(=O)N(C)CC(=O)N[C@H](C(N)=O)C(C)C (Ac-FKE[Sar][Sar]V-NH2) showed inhibition equal to Active

The compound CC(=O)N[C@@H](CCCCN)C(=O)N(C)CC(=O)N[C@H](C(=O)N[C@@H](Cc1ccccc1)C(=O)N(C)CC(=O)N[C@@H](CCC(=O)O)C(N)=O)C(C)C (Ac-K[Sar]VF[Sar]E-NH2) showed inhibition equal to Active
